Molecular target: D-3-phosphoglycerate dehydrogenase (Homo sapiens)
Sequence (O43175 whole entry): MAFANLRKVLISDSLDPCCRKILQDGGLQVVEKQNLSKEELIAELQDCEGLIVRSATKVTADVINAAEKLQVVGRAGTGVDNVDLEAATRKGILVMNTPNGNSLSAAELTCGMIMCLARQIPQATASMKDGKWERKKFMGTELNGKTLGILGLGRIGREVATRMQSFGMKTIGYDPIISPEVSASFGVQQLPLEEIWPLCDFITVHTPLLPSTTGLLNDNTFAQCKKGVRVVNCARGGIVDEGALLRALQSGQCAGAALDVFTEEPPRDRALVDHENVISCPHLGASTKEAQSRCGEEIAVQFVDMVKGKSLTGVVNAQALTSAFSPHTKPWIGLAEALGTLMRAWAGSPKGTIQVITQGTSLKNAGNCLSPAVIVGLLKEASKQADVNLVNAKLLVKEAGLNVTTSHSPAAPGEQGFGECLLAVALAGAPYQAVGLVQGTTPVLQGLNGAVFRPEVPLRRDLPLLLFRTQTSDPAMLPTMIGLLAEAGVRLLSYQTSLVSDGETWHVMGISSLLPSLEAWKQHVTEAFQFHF
Assay: Inhibition of PHGDH (unknown origin) using 11 nM of PHGDH and 3-PG as substrate incubated for 20 mins in presence of NAD+, PSAT1, PSPH by diaphorase and resazurin dye based fluorescence assay
observedProperty: IC50 (µM)
Write the value in µM as a bare number.

Would you please look over these solved cases?
compound	observedProperty	testValue
Cn1c(C(=O)NC2(c3ccc(C(=O)O)c(F)c3)COC2)cc2c(Cl)c(Cl)ccc21	IC50	0.037
Cn1c(C(=O)NC2(c3ccc(CC(=O)NS(C)(=O)=O)cc3)COC2)cc2c(Cl)c(Cl)ccc21	IC50	0.439
Cn1c(C(=O)NC2(c3ccc(C(CC(=O)O)c4cccnc4)cc3)COC2)cc2c(Cl)c(Cl)ccc21 (centres undefined)	IC50	0.025

Return reported IC50; argument: Cn1c(C(=O)NC2(c3ccc(CC(=O)O)c(F)c3)COC2)cc2c(Cl)c(Cl)ccc21
0.034
